Details: 308.15 K; 101.33 kPa; Liquid
Recorded mass density by entry
QUANTITY: mass density (kg/m3)

CCc1ccccc1 [ethylbenzene] :: 855.5
CCO [ethanol] :: 776.3
CCCO [propan-1-ol] :: 792
CCCCO [butan-1-ol] :: 800.1

###

Conditions: 308.15 K; 101.33 kPa; Liquid
Recorded measurements of viscosity, one per entry
QUANTITY: viscosity (mPa·s)

CCc1ccccc1 :: 0.553
CCCO :: 1.565
CCO :: 0.935
CCCCO :: 2
